- test_details: Binding affinity towards Trypanosoma cruzi farnesyl pyrophosphate synthase (TcFPPS)
measured_quantity: Ki (nM)
Quick reminder: number only, in nM, skip the unit.

Give the measured Ki of CCCCCC(P(=O)(O)O)P(=O)(O)O .
470

###

Answer each item with its documented pKi.
- assayed_target: Farnesyl pyrophosphate synthase (Trypanosoma cruzi)
- test_details: Binding affinity towards Trypanosoma cruzi farnesyl pyrophosphate synthase (TcFPPS)
In plain terms, pKi is the concentration in mol/L turned into minus its base-10 logarithm.

Quick check: pKi of CCCCCCCCC(P(=O)(O)O)P(=O)(O)O [(1-Phosphono-nonyl)-phosphonic acid] ?
6.51

Recorded pKi of CCCCCCC(P(=O)(O)O)P(=O)(O)O [(1-Phosphono-heptyl)-phosphonic acid] , please.
6.27

Fill in: pKi of CCCCCCCC(P(=O)(O)O)P(=O)(O)O [(1-Phosphono-octyl)-phosphonic acid] is ___
5.73

###

- assayed_target: Farnesyl pyrophosphate synthase (Trypanosoma cruzi)
- test_details: Inhibition of Trypanosoma cruzi farnesyl pyrophosphate synthase
Task for the reader: assign each of the following compounds its reported IC50.
Could you give me the number in µM? Just the number is fine.

Recorded IC50 for CCCC(P(=O)(O)O)P(=O)(O)O [(1-Phosphono-butyl)-phosphonic acid] with Farnesyl pyrophosphate synthase (Trypanosoma cruzi), please?
150

# value lookup — system Farnesyl pyrophosphate synthase (Trypanosoma cruzi), readout IC50, item CCCCCC(P(=O)(O)O)P(=O)(O)O [(1-Phosphono-hexyl)-phosphonic acid]
5.67

Given the entry CCCCCCCC(P(=O)(O)O)P(=O)(O)O [(1-Phosphono-octyl)-phosphonic acid] , what IC50 was observed with Farnesyl pyrophosphate synthase (Trypanosoma cruzi)?
19.7

###

- assayed_target: Farnesyl pyrophosphate synthase (Trypanosoma cruzi)
- test_details: Inhibition of Trypanosoma cruzi farnesyl pyrophosphate synthase
measured_quantity: IC50 (µM)
Value expressed in µM; do not type the unit.

Would you kindly share the measured IC50 for CCCCCCCCC(P(=O)(O)O)P(=O)(O)O ?
4.25

I am curious: what IC50 value has been reported for CCCCC(P(=O)(O)O)P(=O)(O)O ?
5.71

Requested field: IC50. Item: CCCCCCC(P(=O)(O)O)P(=O)(O)O
4.54
